All values here come from ChEMBL document CHEMBL5724914.

Settings: human gut metagenome, 24 h, 2 µM; also: call rule not given here

>  <Compound>
OC(CCN1CCCCC1)(c1ccccc1)C1CCCCC1 (stereo unspecified)

>  <Bacterial Biotransformation>
Compound metabolized

$$$$
>  <Compound>
Cc1ccc(/C(=C\CN2CCCC2)c2ccccn2)cc1

>  <Bacterial Biotransformation>
Compound NOT metabolized

$$$$
>  <Compound>
c1ccc([C@H]2CN3CCSC3=N2)cc1

>  <Bacterial Biotransformation>
Compound metabolized

$$$$
>  <Compound>
CC(C)(C)NC[C@H](O)COc1ccccc1C1CCCC1.CC(C)(C)NC[C@H](O)COc1ccccc1C1CCCC1.O=S(=O)(O)O [PENBUTOLOL SULFATE]

>  <Bacterial Biotransformation>
Compound metabolized

$$$$
>  <Compound>
C=CCN1CC[C@]23c4c5ccc(O)c4O[C@H]2C(=O)CC[C@@]3(O)[C@H]1C5

>  <Bacterial Biotransformation>
Compound NOT metabolized

$$$$
>  <Compound>
CC(C)c1nc(CN(C)C(=O)N[C@H](C(=O)N[C@@H](Cc2ccccc2)C[C@H](O)[C@H](Cc2ccccc2)NC(=O)OCc2cncs2)C(C)C)cs1

>  <Bacterial Biotransformation>
Compound NOT metabolized

$$$$
>  <Compound>
CCc1nn(CCCN2CCN(c3cccc(Cl)c3)CC2)c(=O)n1CCOc1ccccc1

>  <Bacterial Biotransformation>
Compound NOT metabolized

$$$$
>  <Compound>
CCN(CC)CCNC(=O)c1cc(Cl)c(N)cc1OC [METOCLOPRAMIDE]

>  <Bacterial Biotransformation>
Compound NOT metabolized

$$$$
>  <Compound>
CC(C)c1c(C(=O)Nc2ccccc2)c(-c2ccccc2)c(-c2ccc(F)cc2)n1CC[C@@H](O)C[C@@H](O)CC(=O)O

>  <Bacterial Biotransformation>
Compound metabolized

$$$$
>  <Compound>
CC(C)N(CCC(C(N)=O)(c1ccccc1)c1ccccn1)C(C)C.O=P(O)(O)O (stereo unspecified) [DISOPYRAMIDE PHOSPHATE]

>  <Bacterial Biotransformation>
Compound NOT metabolized

$$$$
>  <Compound>
CN1CC(=O)N2[C@H](c3ccc4c(c3)OCO4)c3[nH]c4ccccc4c3C[C@@H]2C1=O

>  <Bacterial Biotransformation>
Compound metabolized

$$$$
